TARGET_ENTITY: GDP-bound KRAS wild-type protein (Homo sapiens, UniProt P01116)
Sequence (P01116 1-188 isoform P01116-2): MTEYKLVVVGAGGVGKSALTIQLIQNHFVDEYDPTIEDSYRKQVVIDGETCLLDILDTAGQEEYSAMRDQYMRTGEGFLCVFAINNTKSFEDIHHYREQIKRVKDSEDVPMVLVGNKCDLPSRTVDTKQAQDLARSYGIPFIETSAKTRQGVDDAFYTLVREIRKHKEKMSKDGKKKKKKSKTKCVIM
RUN_DESCRIPTION: Binding to KRAS by surface plasmon resonance (SPR), dissociation constant KD
PROTOCOL_CONDITIONS: 1:1 binding model
This section presents compounds with their documented Kd values.
Record the value in nM, omitting the unit from your answer.

COMPOUND: CCO[C@@H]1C[C@H]2C(=O)NC3(CC(C)(C)C3)C(=O)N(C)[C@@H](C(CC)CC)C(=O)N(C)[C@H](C(=O)N(C)C)CC(=O)N(C)[C@@H](COC)C(=O)N[C@@H]([C@@H](C)CC)C(=O)N(C3CC3)CC(=O)N(C)[C@H]3C/C=C\CCN(C3=O)[C@@H](CC3CCC(F)(F)CC3)C(=O)N(C)CC(=O)N[C@@H](CCc3cc(F)c(C(F)(F)F)c(F)c3)C(=O)N2C1 [PP2568]
UNIT_STRING: nM
RECORDED_MEASUREMENT: 1.2

# evaluate next
Report Kd for C#CC[C@H]1C(=O)N[C@@H]([C@@H](C)CC)C(=O)N(C)CC(=O)N(C)[C@H]2C/C=C\CCN(C2=O)[C@@H](Cc2ccc(C(F)(F)F)cc2)C(=O)N(C)CC(=O)N[C@@H](CCc2ccc(C(F)(F)F)c(OC)c2)C(=O)N2C[C@H](F)C[C@H]2C(=O)NC2(CC(C)(C)C2)C(=O)N(C)[C@@H](CCC=C)C(=O)N(C)[C@H](C(=O)N(C)C)CC(=O)N1C [PP3126] please.
0.81

----------
System: human lung cancer strain NCI-H441
Assay type: cell-based
Where a SMILES comes first, the peptide text is derived from it. Bridges are numbered along the chain shown (N, C = ends). [ ]: non-standard residue; d: D form. hPhe(3,5-F2-4-CF3) = N[C@@H](CCc1cc(F)c(C(F)(F)F)c(F)c1)C(=O)O; NPrPhe(4-CF3) = CCCN[C@@H](Cc1ccc(C(F)(F)F)cc1)C(=O)O; NMeGly(cPent) = CN[C@H](C(=O)O)C1CCCC1; Nva(3-Et) = CCC(CC)[C@H](N)C(=O)O; NMeD = CN[C@@H](CC(=O)O)C(=O)O; NMeL = CN[C@@H](CC(C)C)C(=O)O; Ac5c = NC1(C(=O)O)CCCC1; Sar = CNCC(=O)O
# maps each entry to its IC50
Kindly answer with a numeric value in nM, unit omitted.

COMPOUND: CCO[C@@H]1C[C@H]2C(=O)NC3(CCC3)C(=O)N(C)[C@@H](C3CCCC3)C(=O)N(C)[C@H](C(=O)N(C)CC)CC(=O)N(C)[C@@H](CC3CCC3)C(=O)N[C@@H]([C@@H](C)CC)C(=O)N(C)CC(=O)N(C)[C@H]3C/C=C\CCN(C3=O)[C@@H](Cc3ccc(C(F)(F)F)cc3)C(=O)N(C)CC(=O)N[C@@H](CCc3ccc(C(F)(F)F)c(Cl)c3)C(=O)N2C1
UNIT_STRING: nM
IC50: 8.6

COMPOUND: CCC[C@H]1C(=O)N[C@@H]([C@@H](C)CC)C(=O)N(C2CC2)CC(=O)N(C)[C@H]2C/C=C\CCN(C2=O)[C@@H](Cc2ccc(C)cc2)C(=O)N(C)CC(=O)N[C@@H](CCc2ccc(C(F)(F)F)c(OC)c2)C(=O)N2C[C@H](OCC)C[C@H]2C(=O)N(C)C2(CCC2)C(=O)N(C)[C@@H](C2CCCC2)C(=O)N(C)[C@H](C(=O)N(C)C)CC(=O)N1C
UNIT_STRING: nM
IC50: 2.2

I would be grateful if you could share the reported IC50 for CCCN1C(=O)CN(C)C(=O)CN(C)C(=O)[C@H](C(CC)CC)NC(=O)[C@H](CC(C)C)N(C)C(=O)C[C@@H](C(=O)N(C)C)N(C)C(=O)[C@H](C2CCCC2)N(C)C(=O)C2(CCCC2)NC(=O)[C@@H]2CCCN2C(=O)[C@H](CCc2cc(F)c(C(F)(F)F)c(F)c2)NC(=O)CN(C)C(=O)[C@@H]1Cc1ccc(C(F)(F)F)cc1 [PP0747] ([NMeL][Nva(3-Et)][Sar][Sar][NPrPhe(4-CF3)][Sar][hPhe(3,5-F2-4-CF3)]P[Ac5c][NMeGly(cPent)][NMeD]-NMe2; lactam N-11) .
45.9
